Test system: PANC-1
method description: Growth inhibition of human Panc1 cells at 1 uM after 96 hrs by MTT assay relative to control
Format: functional
measurement context: PANC-1, 96 h, values are per cent of control
measured quantity: viability, % of control at 1 µM (%)
One number for each entry, in %.

QUERY: Identify measured viability, % of control at 1 µM associated with CNC(=O)c1cccc(Sc2ccc(NC(=O)NC(=O)c3ccc(OC)c(OC)c3Cl)cc2)c1
RESULT: 35

QUERY: Identify measured viability, % of control at 1 µM associated with CCCCCCCCCCNC(=O)c1cccc(S(=O)(=O)c2ccc(NC(=O)NC(=O)c3cc(OC)cc(OC)c3)cc2)c1
RESULT: 48

QUERY: Identify measured viability, % of control at 1 µM associated with C=CCNC(=O)c1cccc(Oc2ccc(NC(=O)NC(=O)c3cc(OC)cc(OC)c3)cc2)c1
RESULT: 58

# map each compound to its viability, % of control at 1 µM
1. O=C(NC(=O)c1ccccc1)Nc1ccc(Sc2cccc(C(=O)NCc3ccccc3)c2)cc1
2. CNC(=O)c1cccc(Sc2ccc(NC(=O)NC(=O)c3ccccc3)cc2)c1
3. C=CCNC(=O)c1cccc(Oc2ccc(NC(=O)NC(=O)c3ccc(OC)c(OC)c3Cl)cc2)c1
4. C=CCNC(=O)c1cccc(Oc2ccc(NC(=O)NC(=O)c3ccccc3Cl)cc2)c1
5. CCCCCCCCCCNC(=O)c1cccc(Sc2ccc(NC(=O)NC(=O)c3ccc(OC)c(OC)c3Cl)cc2)c1
6. CCCCCCCCCCNC(=O)c1cccc(Sc2ccc(NC(=O)NC(=O)c3cc(OC)cc(OC)c3)cc2)c1

RESULT:
1. 67
2. 65
3. 61
4. 47
5. 63
6. 74
